Assay: in vitro
Conditions: human, HepG2 cells
Description: Cytotoxicity against human HepG2 cells assessed as cell viability at 300 uM after 24 hrs by MTT assay
Below, each entry is listed with its recorded viability at 24 h, 300 µM.
Reply with the number, then its unit.

Answered examples (2):
* Nc1c2c(cc3c1C(c1ccc(F)cc1)c1c(-c4ccccc4)n[nH]c1O3)CCCC2 (stereo not drawn) | 73.4%
* COc1ccc(C2c3c(-c4ccccc4)n[nH]c3Oc3cc4c(c(N)c32)CCCC4)cc1 (stereo not drawn) | 71.3%

Input Nc1c2c(nc3c1C(c1ccccc1)c1c(-c4ccco4)nn(-c4ccccc4)c1O3)CCCC2 (stereo not drawn) . Output viability at 24 h, 300 µM: 67.4%

----------
Test: in vitro
Conditions: human, HepG2 cells
Description: Cytotoxicity against human HepG2 cells assessed as cell viability at 100 uM after 24 hrs by MTT assay
Below, each entry is listed with its recorded viability at 24 h, 100 µM.
The figure you give is taken to be in %; do not add the unit.

• Nc1c2c(nc3c1C(c1ccccc1)c1c(-c4ccco4)nn(-c4ccccc4)c1O3)CCCC2 (stereo not drawn) = 75.7

Input Nc1c2c(cc3c1C(c1ccc(F)cc1)c1c(-c4ccccc4)n[nH]c1O3)CCCC2 (stereo not drawn) . Output viability at 24 h, 100 µM: 89.9

Input COc1ccc(C2c3c(-c4ccccc4)n[nH]c3Oc3cc4c(c(N)c32)CCCC4)cc1 (stereo not drawn) . Output viability at 24 h, 100 µM: 85.6
